Source listed as patent US20230220589A1.

Molecular target: M44-modified F NTAA target peptides (M44-F-P2-peptide)
Assay: Gini coefficient of P2 tolerance from multiplex encoding heatmap
For each record, write down the corresponding P2 score.
Answer using only a numeral; do not append any unit.

Any idea what P2 score was measured for SEQ ID NO 32 (designed binder, not shown: small tags and cut ends; large carriers) QDSTQNLIPAPPLISVPLQPGFWTERFQGRWFSVGMAGNAVQKERQSRFTMGSCIMELQEDNSYNLTFIGVRGQGCRYRILTWVPSSRPGQFTLGNIHSYPQIQSADVQVADTDYDQFAMVFWQTTSENKQYFAVELWGRTKGLSDELKERFVSFAKSLGLKDNNIVFSVPTDQCIDN ? 0.379

Follow-up entry: SEQ ID NO 44 (designed binder, not shown: small tags and cut ends; large carriers) TVPDRSEIAGKWYVVALASNTEFFLREKDRIKTAMARISFLGEDELKVSLARPAPNGCHKAEWTFKKTSDDGEVYTSFLAKFKVEVLDTDYKSYAVIYATPVKDGRTRHEMLLYSRSPEVSPAATAIFRKLAGERNYTDEMVAMLPRQEECTVDEV 0.485
